Values were extracted from patent US20240279215A1.

- Target desc: human NAMPT (Homo sapiens (Human), UniProt P43490)
- Sequence (P43490 whole entry): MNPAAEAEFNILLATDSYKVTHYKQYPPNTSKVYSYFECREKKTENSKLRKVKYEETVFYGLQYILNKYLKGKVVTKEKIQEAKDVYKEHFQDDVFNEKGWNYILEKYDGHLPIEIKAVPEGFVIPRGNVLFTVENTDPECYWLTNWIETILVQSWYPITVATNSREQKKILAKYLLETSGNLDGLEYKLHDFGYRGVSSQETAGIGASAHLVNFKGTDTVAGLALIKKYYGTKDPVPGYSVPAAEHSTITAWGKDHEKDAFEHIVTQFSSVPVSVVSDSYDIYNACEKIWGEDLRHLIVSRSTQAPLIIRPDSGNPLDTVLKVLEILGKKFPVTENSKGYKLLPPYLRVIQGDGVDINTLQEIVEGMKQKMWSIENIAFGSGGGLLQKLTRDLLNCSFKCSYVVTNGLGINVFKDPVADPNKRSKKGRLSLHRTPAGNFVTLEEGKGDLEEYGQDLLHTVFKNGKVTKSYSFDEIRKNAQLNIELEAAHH
- Protocol text: NMN fluorescence biochemical assay (human recombinant NAMPT enzyme assay)
Exercise: for every item that follows, state its recorded AC1.4 Human.
One number for each entry, in µM.

Please review the entries below; each comes with its answer.
Compound | Target desc | Value units | AC1.4 Human
O=C(Nc1ccc(CNC(=O)c2ccc(C(F)(F)F)nc2)cc1)OCc1ccc(Cl)cc1 | human NAMPT (Homo sapiens (Human), UniProt P43490) | µM | 2.32
O=C(Nc1ccc(CC2CC3CCC(C2)N3S(=O)(=O)C2CCC2)cc1)OCc1cnco1 (stereo not drawn) | human NAMPT (Homo sapiens (Human), UniProt P43490) | µM | 0.19

Moving on to another compound below.
In: Suppose we examine the compound CC(=O)N1CC2CC(C1)C2Cc1ccc(NC(=O)OCc2cnco2)cc1 (stereo not drawn) ; what AC1.4 Human value has been reported?
Out: 0.04
